target: SHP2 E69K (Homo sapiens, UniProt Q06124, E69K); construct: recombinantly expressed full-length SHP2 (aa 1-593) with E69K and E76K; purchased Novoprotein Scientific Inc; test: In vitro activity on SHP2 mutant E69K phosphatase; assay type: biochemical; details: activated polypeptide IRS1 added; read-out: SHP2 E69K the activated polypeptide was added IC50
Sequence (Q06124 whole entry E69K, the tested form may be a part): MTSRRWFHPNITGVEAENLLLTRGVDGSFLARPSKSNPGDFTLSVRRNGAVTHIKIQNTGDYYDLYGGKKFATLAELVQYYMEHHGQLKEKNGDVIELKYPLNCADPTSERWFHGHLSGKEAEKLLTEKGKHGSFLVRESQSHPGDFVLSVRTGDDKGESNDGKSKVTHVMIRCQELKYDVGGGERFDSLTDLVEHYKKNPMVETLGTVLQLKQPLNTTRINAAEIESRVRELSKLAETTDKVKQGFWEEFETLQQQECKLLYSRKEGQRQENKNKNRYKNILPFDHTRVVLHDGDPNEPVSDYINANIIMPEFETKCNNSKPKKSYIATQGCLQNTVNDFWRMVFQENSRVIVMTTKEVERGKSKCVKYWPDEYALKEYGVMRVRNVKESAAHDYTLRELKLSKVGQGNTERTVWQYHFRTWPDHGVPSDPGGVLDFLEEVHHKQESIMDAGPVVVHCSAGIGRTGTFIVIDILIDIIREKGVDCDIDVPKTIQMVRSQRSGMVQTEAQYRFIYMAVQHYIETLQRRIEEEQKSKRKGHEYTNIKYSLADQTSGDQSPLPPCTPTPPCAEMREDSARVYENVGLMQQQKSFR
test_readout: IC50 (nM)
The figure you give is taken to be in nM; do not add the unit.

Look at this molecule and give its reported IC50. CNc1nccc(Sc2cnc(N3CCC4(CC3)Cc3ncccc3[C@H]4N)n3ccnc23)c1Cl
7.1

* * *

system: p-ERK in KYSE-520 cells; test: Determination of p-ERK in KYSE-520 cells (HTRF); format: cell-based; conditions: Homo sapiens, KYSE-520, 2 h
test_readout: pIC50
Please express pIC50 as -log10 of the molar concentration.

Missing value: pIC50, p-ERK in KYSE-520 cells, entry CNc1nccc(Sc2cnc(N3CCC4(CC3)Cc3ncccc3[C@H]4N)n3ccnc23)c1Cl . Fill in?
8.32

Look up pIC50 with p-ERK in KYSE-520 cells for this molecule: C[C@@H]1OCC2(CCN(c3ncc(Sc4cccnc4C(F)(F)F)c4nccn34)CC2)[C@@H]1N
7.49

Item: N[C@@H]1c2cccnc2CC12CCN(c1ncc(Sc3cccnc3C(F)(F)F)c3nccn13)CC2 Test system: p-ERK in KYSE-520 cells Read-out: pIC50 Value: ?
8.27

Lab note: need pIC50 for Cc1nc(N2CCC3(CC2)CO[C@@H](C)[C@H]3N)n2ccnc2c1-c1cccc(Cl)c1Br on p-ERK in KYSE-520 cells, anyone have it?
7.23

Form field: pIC50 recorded for CNc1nccc(Sc2cnc(N3CCC4(CC3)Cc3ncccc3[C@H]4N)n3ccnc23)c1F with p-ERK in KYSE-520 cells (enter value)
8.07

State its pIC50 on p-ERK in KYSE-520 cells: Nc1nc(N2CCC3(CCC[C@H]3N)CC2)n2ccnc2c1Sc1ccnc(F)c1Cl
7.61

Could you share what pIC50 was measured for CC1(O)CN(c2nccc(Sc3cnc(N4CCC5(CC4)Cc4ncccc4[C@H]5N)n4ccnc34)c2Cl)C1 , tested on p-ERK in KYSE-520 cells?
8.10

Give pIC50 (p-ERK in KYSE-520 cells) of the following molecule: N[C@@H]1c2cccnc2CC12CCN(c1ncc(Sc3ccnc(N4CCOCC4)c3Cl)c3nccn13)CC2
8.19
